molecular target: affinity purified antibody IHuP#002-001-ABL-08; assay: ECL bridging/competition assay, 10 ug/ml ISV vs tagged ISV
property_label: ECLU confirmatory assay (ECLU)

>  <binder>
Example 1C: (A14P, K83R, Q108L) (SEQ ID NO: 27) (VHH) VHH: EVQLVESGGGLVQPGGSLRLSCAASGRTFNNYAMGWFRRAPGKEREFVAAITRSGVRSGVSAIYGDSVKDRFTISRDNAKNTLYLQMNSLRPEDTAVYTCAASAIGSGALRRFEYDYSGQGTLVTVSS

>  <unit_label>
ECLU

>  <ECLU confirmatory assay>
319

$$$$
>  <binder>
Example 1C: (Q108L) (SEQ ID NO: 26) (VHH) VHH: EVQLVESGGGLVQAGGSLRLSCAASGRTFNNYAMGWFRRAPGKEREFVAAITRSGVRSGVSAIYGDSVKDRFTISRDNAKNTLYLQMNSLKPEDTAVYTCAASAIGSGALRRFEYDYSGQGTLVTVSS

>  <unit_label>
ECLU

>  <ECLU confirmatory assay>
2530

$$$$
>  <binder>
Example 1C: (A14P, R39Q, K83R, T91Y, Q108L) (SEQ ID NO: 28) (VHH) VHH: EVQLVESGGGLVQPGGSLRLSCAASGRTFNNYAMGWFRQAPGKEREFVAAITRSGVRSGVSAIYGDSVKDRFTISRDNAKNTLYLQMNSLRPEDTAVYYCAASAIGSGALRRFEYDYSGQGTLVTVSS

>  <unit_label>
ECLU

>  <ECLU confirmatory assay>
251

$$$$
>  <binder>
Example 1C: (K83R) (SEQ ID NO: 25) (VHH) VHH: EVQLVESGGGLVQAGGSLRLSCAASGRTFNNYAMGWFRRAPGKEREFVAAITRSGVRSGVSAIYGDSVKDRFTISRDNAKNTLYLQMNSLRPEDTAVYTCAASAIGSGALRRFEYDYSGQGTQVTVSS

>  <unit_label>
ECLU

>  <ECLU confirmatory assay>
2460

$$$$

[A] Example 1C: wildtype VHH (SEQ ID NO: 23) (VHH) VHH: EVQLVESGGGLVQAGGSLRLSCAASGRTFNNYAMGWFRRAPGKEREFVAAITRSGVRSGVSAIYGDSVKDRFTISRDNAKNTLYLQMNSLKPEDTAVYTCAASAIGSGALRRFEYDYSGQGTQVTVSS
[B] Example 1C: (A14P) (SEQ ID NO: 24) (VHH) VHH: EVQLVESGGGLVQPGGSLRLSCAASGRTFNNYAMGWFRRAPGKEREFVAAITRSGVRSGVSAIYGDSVKDRFTISRDNAKNTLYLQMNSLKPEDTAVYTCAASAIGSGALRRFEYDYSGQGTQVTVSS
Hi there, can you help? I need to know whether A or B has lower measured ECLU confirmatory assay. // output: label of the selected item B
